Biological target: PMIV (Plasmodium falciparum)
Experiment: FRET-based PMIV inhibition assay
Type: biochemical, P. falciparum
Conditions: read-out: PMIV, nM (IC50)
MEASURED_ENDPOINT: log10 of IC50 (log10 of the value in nM)
Please interpret these as log10 of IC50 where IC50 is in nM.

query: What value of log10 of IC50 has been recorded for this entry: COc1cccc(C(C)(C)NC[C@@H](O)[C@@H]2Cc3cccc(c3)OCCCCN(CCC(F)(F)F)C(=O)c3cccc(c3)C(=O)N2)c1
result: 1.79

query: What value of log10 of IC50 has been recorded for this entry: CCCN1CCCCCc2cccc(c2)C[C@@H]([C@H](O)CNC(C)(C)c2cccc(OC)c2)NC(=O)c2cccc(c2)C1=O
result: 1.23

query: What value of log10 of IC50 has been recorded for this entry: COc1cccc(C(C)(C)NC[C@@H](O)[C@@H]2Cc3cccc(c3)OCCCCN(CCN(C)C)C(=O)c3cccc(c3)C(=O)N2)c1
result: 3.24

query: What value of log10 of IC50 has been recorded for this entry: CCCN1CCOc2cccc(c2)C[C@@H]([C@H](O)CNC(C)(C)c2cccc(OC)c2)NC(=O)c2cccc(c2)C1=O
result: 2.30

query: What value of log10 of IC50 has been recorded for this entry: CCCN1CCOCCc2cccc(c2)C[C@@H]([C@H](O)CNC(C)(C)c2cccc(OC)c2)NC(=O)c2cccc(c2)C1=O
result: 1.91

query: What value of log10 of IC50 has been recorded for this entry: COc1cccc(C(C)(C)NC[C@@H](O)[C@@H]2Cc3cccc(c3)OCCCCNC(=O)c3cccc(c3)C(=O)N2)c1
result: 2.71

query: What value of log10 of IC50 has been recorded for this entry: COc1cccc(C(C)(C)NC[C@@H](O)[C@@H]2Cc3cccc(c3)OCCCCN(CC(C)(C)C)C(=O)c3cccc(c3)C(=O)N2)c1
result: 1.60

###

Consider the following molecules; for each one, report its IC50.
Target: PMIV (Plasmodium falciparum, UniProt Q8IM16)
Sequence (Q8IM16 122-449): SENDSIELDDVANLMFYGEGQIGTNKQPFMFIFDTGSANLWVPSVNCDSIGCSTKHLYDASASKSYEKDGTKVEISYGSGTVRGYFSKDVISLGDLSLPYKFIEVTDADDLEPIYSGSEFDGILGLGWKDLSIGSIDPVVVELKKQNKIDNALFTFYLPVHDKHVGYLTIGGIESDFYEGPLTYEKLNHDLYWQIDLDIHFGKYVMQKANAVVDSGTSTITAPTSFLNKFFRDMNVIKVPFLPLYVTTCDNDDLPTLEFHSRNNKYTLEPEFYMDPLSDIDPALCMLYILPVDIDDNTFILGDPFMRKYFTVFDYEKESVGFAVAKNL
Experiment: FRET-based PMIV inhibition assay
Format: biochemical, P. falciparum
Conditions: read-out: PMIV, nM (IC50)
Report as a plain number; the unit nM is understood.

query: What value of IC50 has been recorded for this entry: CCCN1CCCCOc2cccc(c2)C[C@@H]([C@H](O)CNC(C)(C)c2cccc(OC)c2)NC(=O)c2cccc(c2)C1=O
result: 60

query: What value of IC50 has been recorded for this entry: COc1cccc(C(C)(C)NC[C@@H](O)[C@@H]2Cc3cccc(c3)OCCCCN(C)C(=O)c3cccc(c3)C(=O)N2)c1
result: 170

query: What value of IC50 has been recorded for this entry: CCCN1CCCCCOc2cccc(c2)C[C@@H]([C@H](O)CNC(C)(C)c2cccc(OC)c2)NC(=O)c2cccc(c2)C1=O
result: 190

query: What value of IC50 has been recorded for this entry: CCCN1CCCCc2cccc(c2)C[C@@H]([C@H](O)CNC(C)(C)c2cccc(OC)c2)NC(=O)c2cccc(c2)C1=O
result: 74

###

Biological target: recombinant P. falciparum PMX (Plasmodium falciparum, UniProt Q8IAS0)
Sequence (Q8IAS0 222-573): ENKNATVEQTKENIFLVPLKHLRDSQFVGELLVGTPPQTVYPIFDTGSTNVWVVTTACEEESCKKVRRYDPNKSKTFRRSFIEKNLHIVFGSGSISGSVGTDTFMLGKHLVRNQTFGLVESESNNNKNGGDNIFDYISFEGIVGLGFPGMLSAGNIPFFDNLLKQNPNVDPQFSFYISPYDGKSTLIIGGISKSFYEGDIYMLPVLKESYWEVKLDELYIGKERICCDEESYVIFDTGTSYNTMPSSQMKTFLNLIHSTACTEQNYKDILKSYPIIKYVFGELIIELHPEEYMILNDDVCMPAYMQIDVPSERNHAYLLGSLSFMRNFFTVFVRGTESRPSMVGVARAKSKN
Assay: Recombinant P. falciparum PMX inhibition assay (fluorogenic substrate Rh2N)
Assay type: biochemical
Conditions: recombinant PMX; read-out: PMX, nM (IC50)
Lab note: cut-off is 7 nM. Strictly less in IC50 is fulfilled. Exactly 7 nM or more is not fulfilled.

query: For COc1cccc(C(C)(C)NC[C@@H](O)[C@@H]2Cc3cccc(c3)OCCCCN(CCN(C)C)C(=O)c3cccc(c3)C(=O)N2)c1 , is the recorded IC50 below the cut-off of 7 nM?
result: not fulfilled

query: For CCCN1CCCCCc2cccc(c2)C[C@@H]([C@H](O)CNC(C)(C)c2cccc(OC)c2)NC(=O)c2cccc(c2)C1=O , is the recorded IC50 below the cut-off of 7 nM?
result: fulfilled

query: For CCCN1CCCCOc2cccc(c2)C[C@@H]([C@H](O)CNC(C)(C)c2cccc(OC)c2)NC(=O)c2cccc(c2)C1=O , is the recorded IC50 below the cut-off of 7 nM?
result: fulfilled

query: For CCCN1CCOCCc2cccc(c2)C[C@@H]([C@H](O)CNC(C)(C)c2cccc(OC)c2)NC(=O)c2cccc(c2)C1=O , is the recorded IC50 below the cut-off of 7 nM?
result: fulfilled

query: For COc1cccc(C(C)(C)NC[C@@H](O)[C@@H]2Cc3cccc(c3)OCCCCN(CC(C)(C)C)C(=O)c3cccc(c3)C(=O)N2)c1 , is the recorded IC50 below the cut-off of 7 nM?
result: fulfilled

query: For COc1cccc(C(C)(C)NC[C@@H](O)[C@@H]2Cc3cccc(c3)OCCCCN(CCC(F)(F)F)C(=O)c3cccc(c3)C(=O)N2)c1 , is the recorded IC50 below the cut-off of 7 nM?
result: not fulfilled

###

Experiment: Pharmacokinetics in mice (plasma, UPLC/MS/MS)
Format: in vivo
Details: female, NMRI, mouse, po, p.os 50 mg/kg
MEASURED_ENDPOINT: AUC(0-t) at 6 h (ng·h/mL)
Report as a plain number; the unit ng·h/mL is understood.

query: What value of AUC(0-t) at 6 h has been recorded for this entry: CCCN1CCCCCc2cccc(c2)C[C@@H]([C@H](O)CNC(C)(C)c2cccc(OC)c2)NC(=O)c2cccc(c2)C1=O
result: 218

###

Assay: Liver microsomal metabolic stability
Assay type: in vitro ADME, mouse
Details: pooled liver microsomes, pH 7.4; mouse liver microsomes, 5 μM; read-out: microsomal stability CL(int)
Protocol: Microsomal stability assays are performed as described elsewhere.[41] Test compounds and pooled mouse liver microsomes are incubated in potassium phosphate buffer in the presence of the cofactor NADPH at 37 °C. […] Samples were centrifuged, and the resultant supernatant was analyzed by ultra-performance liquid chromatography–tandem mass spectrometry (UPLC-MS/MS). The amount of remaining compound is calculated and compared to the initial amount of test compound (zero time point). […]
Assign met to entries whose microsomal CLint at 1 h, 5 μM meets or exceeds 100 µL/min/mg; assign not met to the rest.

query: In plain terms: is recorded microsomal CLint at 1 h, 5 μM at least 100 µL/min/mg for COc1cccc(C(C)(C)NC[C@@H](O)[C@@H]2Cc3cccc(c3)OCCCCNC(=O)c3cccc(c3)C(=O)N2)c1 ?
result: not met

query: In plain terms: is recorded microsomal CLint at 1 h, 5 μM at least 100 µL/min/mg for CCCN1CCCCCOc2cccc(c2)C[C@@H]([C@H](O)CNC(C)(C)c2cccc(OC)c2)NC(=O)c2cccc(c2)C1=O ?
result: met

query: In plain terms: is recorded microsomal CLint at 1 h, 5 μM at least 100 µL/min/mg for CCCN1CCCCCc2cccc(c2)C[C@@H]([C@H](O)CNC(C)(C)c2cccc(OC)c2)NC(=O)c2cccc(c2)C1=O ?
result: not met

query: In plain terms: is recorded microsomal CLint at 1 h, 5 μM at least 100 µL/min/mg for CCCN1CCCCc2cccc(c2)C[C@@H]([C@H](O)CNC(C)(C)c2cccc(OC)c2)NC(=O)c2cccc(c2)C1=O ?
result: not met

query: In plain terms: is recorded microsomal CLint at 1 h, 5 μM at least 100 µL/min/mg for COc1cccc(C(C)(C)NC[C@@H](O)[C@@H]2Cc3cccc(c3)OCCCCN(CCC(F)(F)F)C(=O)c3cccc(c3)C(=O)N2)c1 ?
result: not met

query: In plain terms: is recorded microsomal CLint at 1 h, 5 μM at least 100 µL/min/mg for CCCN1CCOCCc2cccc(c2)C[C@@H]([C@H](O)CNC(C)(C)c2cccc(OC)c2)NC(=O)c2cccc(c2)C1=O ?
result: met

###

Consider the following compounds; for each one, report its microsomal CLint at 1 h, 5 μM.
Test: Liver microsomal metabolic stability
Format: in vitro ADME, mouse
Conditions: pooled liver microsomes, pH 7.4; mouse liver microsomes, 5 μM; read-out: microsomal stability CL(int)
Report as a plain number; the unit µL/min/mg is understood.

query: What value of microsomal CLint at 1 h, 5 μM has been recorded for this entry: CCCN1CCCCOc2cccc(c2)C[C@@H]([C@H](O)CNC(C)(C)c2cccc(OC)c2)NC(=O)c2cccc(c2)C1=O
result: 160

query: What value of microsomal CLint at 1 h, 5 μM has been recorded for this entry: CCCN1CCOc2cccc(c2)C[C@@H]([C@H](O)CNC(C)(C)c2cccc(OC)c2)NC(=O)c2cccc(c2)C1=O
result: 99.8

query: What value of microsomal CLint at 1 h, 5 μM has been recorded for this entry: CCCN(CCC)C(=O)c1cccc(C(=O)N[C@@H](Cc2ccccc2)[C@H](O)CNC(C)(C)c2cccc(OC)c2)c1
result: 216

query: What value of microsomal CLint at 1 h, 5 μM has been recorded for this entry: COc1cccc(C(C)(C)NC[C@@H](O)[C@@H]2Cc3cccc(c3)OCCCCN(C)C(=O)c3cccc(c3)C(=O)N2)c1
result: 81.9
